- System: WI38
- experiment-summary: MTT cell viability test, WI38
- Format: cell-based, human
- measurement-parameters: Homo sapiens, WI-38; incubation time 24 h
Could you please report measured IC50 for the items listed next?
Give bare numbers, in µM.

[
  {
    "molecule": "O=c1[nH]cc(F)c(=O)[nH]1 [Compound 5-FU, 5-fluorouracil, reference compound]",
    "reported-metric": "IC50",
    "value-reported": 62
  }
]

Report IC50 for each item below.
1. O=C1C(=O)N(Cc2ccccc2Cl)c2ccc(F)cc21 [Compound 3b]
2. O=C1C(=O)N(Cc2ccccc2F)c2ccc(F)cc21 [Compound 3a]
3. O=C1C(=O)N(Cc2c(F)cccc2Cl)c2ccc(F)cc21 [Compound 3d]

Result:
1. 58.1
2. 62
3. 78.3

---

- Test system: M-HeLa
- experiment-summary: MTT cell viability test, M-HeLa
- Assay type: cell-based, human
- measurement-parameters: Homo sapiens, M-HeLa; incubation time 24 h
Cut-off 60 µM on IC50: below means TRUE, at or above means FALSE.

[
  {
    "compound": "O=C1C(=O)N(Cc2ccc(Br)cc2F)c2ccccc21",
    "target-of-assay": "M-HeLa",
    "answer-label": "TRUE"
  },
  {
    "compound": "O=C1C(=O)N(Cc2c(F)cccc2F)c2ccccc21",
    "target-of-assay": "M-HeLa",
    "answer-label": "FALSE"
  },
  {
    "compound": "O=c1[nH]cc(F)c(=O)[nH]1 [Compound 5-FU, 5-fluorouracil, reference compound]",
    "target-of-assay": "M-HeLa",
    "answer-label": "FALSE"
  },
  {
    "compound": "CC(C)(C)c1ccc(CN2C(=O)C(=O)c3cc(F)ccc32)cc1",
    "target-of-assay": "M-HeLa",
    "answer-label": "FALSE"
  }
]

Q: Could you please tell me whether IC50 recorded for O=C1C(=O)N(Cc2c(F)c(F)c(F)c(F)c2F)c2ccccc21 is less than 60 µM?
Result: FALSE

Q: Could you please tell me whether IC50 recorded for O=C1C(=O)N(Cc2c(F)cccc2F)c2ccc(F)cc21 is less than 60 µM?
Result: FALSE

Q: Could you please tell me whether IC50 recorded for Cc1ccc2c(c1)C(=O)C(=O)N2Cc1cccc(C(F)(F)F)c1 is less than 60 µM?
Result: FALSE

Q: Could you please tell me whether IC50 recorded for O=C1C(=O)N(Cc2ccccc2Cl)c2ccc(F)cc21 is less than 60 µM?
Result: TRUE

---

- Tested on: Fusarium oxysporum IBPPM 543
- experiment-summary: Mycelial radial growth inhibition
- Format: cell-based
- measurement-parameters: Fusarium oxysporum, IBPPM543, 120 h; 40 nmol/mL; age of the fungus 5 days; read-out: Inhibition value, I (%)
reported-metric: inhibition of growth at 40 µM
Give your result as the value with the unit written after it.

[
  {
    "compound": "O=C(C[n+]1ccccc1)NN=C1C(=O)N(Cc2c(F)c(F)c(F)c(F)c2F)c2ccc(F)cc21.[Cl-] [Compound 5d]",
    "reported-metric": "inhibition of growth at 40 µM",
    "value-reported": "54%"
  },
  {
    "compound": "O=C(C[n+]1ccccc1)NN=C1C(=O)N(Cc2ccccc2F)c2ccc(F)cc21.[Cl-] [Compound 5a]",
    "reported-metric": "inhibition of growth at 40 µM",
    "value-reported": "54%"
  },
  {
    "compound": "Cc1ccc[n+](CC(=O)N/N=C2\\C(=O)N(Cc3c(F)cccc3Cl)c3ccccc32)c1C [Compound 7b]",
    "reported-metric": "inhibition of growth at 40 µM",
    "value-reported": "52%"
  },
  {
    "compound": "O=C(C[n+]1ccccc1)NN=C1C(=O)N(Cc2c(F)cccc2Cl)c2ccc(F)cc21.[Cl-] [Compound 5b]",
    "reported-metric": "inhibition of growth at 40 µM",
    "value-reported": "56%"
  },
  {
    "compound": "Cc1ccc[n+](CC(=O)N/N=C2\\C(=O)N(Cc3cccc(C(F)(F)F)c3)c3ccccc32)c1C [Compound 7c]",
    "reported-metric": "inhibition of growth at 40 µM",
    "value-reported": "63%"
  },
  {
    "compound": "Cc1ccc[n+](CC(=O)N/N=C2\\C(=O)N(Cc3ccccc3F)c3ccccc32)c1C [Compound 7a]",
    "reported-metric": "inhibition of growth at 40 µM",
    "value-reported": "65%"
  }
]

Q: Supply measured inhibition of growth at 40 µM of O=C(C[n+]1ccccc1)NN=C1C(=O)N(Cc2cccc(C(F)(F)F)c2)c2ccc(F)cc21.[Cl-] [Compound 5c] in your reply.
Result: 55%
